Cited source: patent US9505727B2

# study-target: hNav1.1 (Homo sapiens, UniProt P35498)
# Construct: host or cells: Xenopus oocytes (cRNA injection)
# test: Two-electrode voltage-clamp of hNav1.1 (+β1) in Xenopus oocytes
# Type: cell-based
# condition-set: 100 μM, versus DMSO
property-measured: Effect on hNav1.1 opening (G/Gmax), in words

[[record]]
smiles_input = "NC(=O)c1nnn(Cc2cccc(F)c2)c1N"
result = "clearly inhibit"

[[record]]
smiles_input = "Cc1c(C(N)=O)nnn1Cc1ccccc1"
result = "clearly inhibit"


----------
# study-target: hNav1.1 (Homo sapiens, UniProt P35498)
# Construct: host or cells: Xenopus oocytes (cRNA injection)
# test: Two-electrode voltage-clamp of hNav1.1 (+β1) in Xenopus oocytes
# Type: cell-based
# condition-set: 100 μM drug, steady-state inactivation
Reported Inactivation (V1/2) hNav1.1 values follow for various molecules
property-measured: Inactivation (V1/2) hNav1.1 (mV)

[[record]]
molecule = "NC(=O)c1nnn(Cc2ccc(F)cc2)c1N"
result = "−49.8"

[[record]]
molecule = "OCc1cn(Cc2cccc(F)c2)nn1"
result = "−49.2"

[[record]]
molecule = "NC(=O)c1cn(Cc2c(F)cccc2F)nn1 [Rufinamide, reference compound]"
result = "−47.8"


----------
# study-target: hNav1.1 (Homo sapiens, UniProt P35498)
# Construct: host or cells: Xenopus oocytes (cRNA injection)
# test: Two-electrode voltage-clamp of hNav1.1 (+β1) in Xenopus oocytes
# Format: cell-based
# condition-set: 100 μM drug, ≤1% DMSO, oocytes incubated at least one hour
Reported Activation (V1/2) hNav1.1 values follow for various molecules
property-measured: Activation (V1/2) hNav1.1 (mV**)

[[record]]
molecule = "NC(=O)c1cn(Cc2c(F)cccc2F)nn1 [Rufinamide, reference compound]"
property_measured = "Activation (V1/2) hNav1.1"
result = "−30.6"

[[record]]
molecule = "Cc1c(C(N)=O)nnn1Cc1ccccc1 [Compound B]"
property_measured = "Activation (V1/2) hNav1.1"
result = "−27.4"

[[record]]
molecule = "NC(=O)c1nnn(Cc2cccc(F)c2)c1N [Compound A]"
property_measured = "Activation (V1/2) hNav1.1"
result = "−30.8"

